Cited source for all entries: patent US20220273659A1

- Target Desc: CDK2 (cyclin A) (Homo sapiens, UniProt P24941)
Listed here: items and their measured IC50.
Reported Metric: IC50 (nM)

[[record]]
structure_notation = "N#Cc1cc2cnc(NC3CCN(S(=O)(=O)c4ccc(F)cc4)CC3)nc2n(C2CCCC2)c1=O"
sign = "<"
observed_result = 1

[[record]]
structure_notation = "CS(=O)(=O)N1CCC[C@H](Nc2ncc3cc(C#N)c(=O)n(C4CCCC4)c3n2)C1"
sign = ">"
observed_result = 5000

[[record]]
structure_notation = "CCC(CC)n1c(=O)c(C#N)cc2cnc(NC3CCN(S(C)(=O)=O)CC3)nc21"
sign = "="
observed_result = 29

[[record]]
structure_notation = "CCCCCc1ccc(S(=O)(=O)N2CCC(Nc3ncc4cc(C#N)c(=O)n(C5CCCC5)c4n3)CC2)cc1"
sign = "="
observed_result = 57

[[record]]
structure_notation = "N#Cc1cc2cnc(Nc3ccc4c(c3)CCNC4)nc2n(C2CCCC2)c1=O"
sign = "="
observed_result = 32

[[record]]
structure_notation = "N#Cc1cc2cnc(NC3CCN(S(=O)(=O)N4CCOCC4)CC3)nc2n(C2CCCC2)c1=O"
sign = "="
observed_result = 8


* * *

Measured pIC50 values are reported for all entries that follow.
- Target Desc: CDK4 (Homo sapiens, UniProt P11802)
- Sequence (P11802 whole entry): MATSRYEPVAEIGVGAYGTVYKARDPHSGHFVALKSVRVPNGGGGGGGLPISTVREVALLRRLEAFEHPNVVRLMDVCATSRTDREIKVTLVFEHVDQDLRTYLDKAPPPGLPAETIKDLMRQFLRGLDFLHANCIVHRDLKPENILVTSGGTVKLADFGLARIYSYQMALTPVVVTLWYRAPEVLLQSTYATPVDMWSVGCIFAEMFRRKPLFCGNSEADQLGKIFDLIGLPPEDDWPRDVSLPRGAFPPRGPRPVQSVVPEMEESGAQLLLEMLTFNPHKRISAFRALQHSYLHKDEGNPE
- Sequence (P24385 whole entry partner): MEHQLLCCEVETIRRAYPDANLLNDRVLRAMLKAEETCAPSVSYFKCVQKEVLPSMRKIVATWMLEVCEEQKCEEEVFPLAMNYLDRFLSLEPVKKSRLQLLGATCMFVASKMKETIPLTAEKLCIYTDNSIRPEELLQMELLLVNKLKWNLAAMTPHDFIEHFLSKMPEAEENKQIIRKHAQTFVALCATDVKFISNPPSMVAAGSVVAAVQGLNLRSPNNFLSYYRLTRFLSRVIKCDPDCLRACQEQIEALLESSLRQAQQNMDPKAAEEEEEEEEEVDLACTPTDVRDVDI
- Protocol Text: In vitro kinase inhibition IC50, luminescence (ADP Glo), retinoblastoma substrate
- Condition Context: read-out: CDK4/D1 IC50
pIC50: −log10 of the molar value.
Reported Metric: pIC50

[[record]]
compound = "CS(=O)(=O)N1CCC[C@H](Nc2ncc3cc(C#N)c(=O)n(C4CCCC4)c3n2)C1 [Compound No. 364]"
sign = "<"
observed_result = 6.70

[[record]]
compound = "CN(C)CCN1CCc2ccc(Nc3ncc4cc(C#N)c(=O)n(C5CCCC5)c4n3)cc2C1=O [Compound No. 68]"
sign = "<"
observed_result = 6.70

[[record]]
compound = "CN1CCN(c2ccc(Nc3ncc4cc(C#N)c(=O)n([C@H]5CC[C@H](C)CC5)c4n3)cc2)CC1 [Compound No. 1]"
sign = "="
observed_result = 8.70

[[record]]
compound = "CS(=O)(=O)N1CCC(Nc2ncc3cc(C4CC4)c(=O)n(C4CCCC4)c3n2)CC1 [Compound No. 379]"
sign = "="
observed_result = 7.80

[[record]]
compound = "N#Cc1cc2cnc(NC3CCCC3O)nc2n(C2CCCC2)c1=O (centres unmarked) [Compound No. 349]"
sign = "="
observed_result = 7.54

[[record]]
compound = "N#Cc1cc2cnc(Nc3ccc4c(c3)NC(=O)C4)nc2n(C2CCCC2)c1=O [Compound No. 19]"
sign = "="
observed_result = 7.46

[[record]]
compound = "CS(=O)(=O)N1CCC(Nc2ncc3cc(C#N)c(=O)n([C@@H]4CCC(F)(F)C4)c3n2)CC1 [Compound No. 385]"
sign = "="
observed_result = 7.31

[[record]]
compound = "N#Cc1cc2cnc(Nc3ccc4c(c3)CCNC4)nc2n(C2CC3CC3C2)c1=O (centres unmarked) [Compound No. 342]"
sign = "="
observed_result = 8.00


* * *

- System: MCF-7 breast adenocarcinoma cells
- Protocol Text: Cancer cell proliferation assay, single agent (cell viability)
- Type: cell-based
- Condition Context: Homo sapiens, MCF7, Table 4; Rb positive; treatment 144 Hr with medium change at 72 Hr; Cell Titer-Glo or resazurin
pIC50: −log10 of the molar value.
Reported Metric: pIC50

[[record]]
compound = "N#Cc1cc2cnc(Nc3ccc4c(c3)CCNC4)nc2n(C2CCCC2O)c1=O (stereo not drawn) [Compound No. 346]"
observed_result = "< 4.52"

[[record]]
compound = "N#Cc1cc2cnc(Nc3ccc4c(c3)CCNC4)nc2n(C2COCC2O)c1=O (stereo not drawn) [Compound No. 101]"
observed_result = "< 4.52"

[[record]]
compound = "CC1CCN(c2ccc(Nc3ncc4cc(C#N)c(=O)n(C5CCCC5)c4n3)cc2)CC1 [Compound No. 25]"
observed_result = "< 4.52"


* * *

- Target Desc: CDK6 (Homo sapiens)
- Sequence (Q00534 whole entry, one chain of several): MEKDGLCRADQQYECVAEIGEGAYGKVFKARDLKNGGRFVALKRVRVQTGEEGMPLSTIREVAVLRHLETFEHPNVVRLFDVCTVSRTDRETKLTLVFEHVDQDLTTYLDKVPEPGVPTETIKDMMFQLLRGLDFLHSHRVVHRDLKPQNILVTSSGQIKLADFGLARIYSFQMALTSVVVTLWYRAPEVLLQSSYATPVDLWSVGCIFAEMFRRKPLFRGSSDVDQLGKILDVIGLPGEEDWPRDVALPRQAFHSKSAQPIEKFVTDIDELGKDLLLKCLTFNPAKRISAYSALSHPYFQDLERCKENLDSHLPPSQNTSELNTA
- Protocol Text: In vitro kinase inhibition IC50, luminescence (ADP Glo), retinoblastoma substrate
- Condition Context: read-out: CDK6/D1 IC50
- Experimental: IC50 values of compounds against CDK4 and CDK6 were determined by luminescence using retinoblastoma as substrate. […] Readings were taken at 15 min and 45 min incubation after detection reagent was added in a Synergy Neo Plate reader (BioTek, Winooski, Vt.) at single excitation of 340 nm and Dual emission at 495 nm and 520 nm respectively. […]
pIC50: −log10 of the molar value.
Reported Metric: pIC50

[[record]]
compound = "N#Cc1cc2cnc(Nc3ccc4c(c3)CNCC4)cc2n(C2CCCC2)c1=O [Compound No. 95]"
observed_result = "< 6.74"

[[record]]
compound = "N#Cc1cc2cnc(Nc3ccc4c(c3)CCNC4)nc2n(CC2CC2)c1=O [Compound No. 85]"
observed_result = "< 6.72"

[[record]]
compound = "CN1CCN(S(=O)(=O)c2cccc(Nc3ncc4cc(C#N)c(=O)n(C5CCCC5)c4n3)c2)CC1 [Compound No. 17]"
observed_result = "< 6.70"


* * *

- Target Desc: CDK1 (cyclin B) (Homo sapiens, UniProt P06493)
- Construct: purchased Invitrogen Life Technologies (assay service)
- Sequence (P06493 whole entry): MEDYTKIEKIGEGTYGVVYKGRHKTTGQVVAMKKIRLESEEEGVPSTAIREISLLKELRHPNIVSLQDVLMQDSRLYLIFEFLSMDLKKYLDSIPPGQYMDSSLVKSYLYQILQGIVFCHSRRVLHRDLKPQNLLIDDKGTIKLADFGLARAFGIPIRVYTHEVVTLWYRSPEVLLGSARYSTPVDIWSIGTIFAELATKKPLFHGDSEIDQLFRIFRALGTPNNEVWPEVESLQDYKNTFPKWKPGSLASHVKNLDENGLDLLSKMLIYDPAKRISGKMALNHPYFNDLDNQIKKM
- Sequence (P14635 whole entry partner): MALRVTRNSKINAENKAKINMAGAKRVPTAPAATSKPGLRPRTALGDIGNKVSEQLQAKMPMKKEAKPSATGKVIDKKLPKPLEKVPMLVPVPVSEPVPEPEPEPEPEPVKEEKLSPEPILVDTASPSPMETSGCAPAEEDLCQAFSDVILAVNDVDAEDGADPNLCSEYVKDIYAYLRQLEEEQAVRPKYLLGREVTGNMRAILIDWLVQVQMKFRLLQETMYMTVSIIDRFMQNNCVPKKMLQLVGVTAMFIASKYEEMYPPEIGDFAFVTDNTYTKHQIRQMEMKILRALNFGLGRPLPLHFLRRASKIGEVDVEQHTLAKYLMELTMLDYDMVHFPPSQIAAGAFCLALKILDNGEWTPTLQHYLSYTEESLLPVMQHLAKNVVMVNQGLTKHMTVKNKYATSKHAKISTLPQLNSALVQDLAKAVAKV
- Protocol Text: Z'-LYTE kinase assay
- Format: biochemical
- Condition Context: read-out: CDK1/B IC50
- Description: The plates were shaken for 30 seconds, and incubated for 60 minutes at room temperature. […] The plates were read on fluorescence plate reader with Dual emission at 445 nm and 520 nm. The following equations were used for Z′-LYTE™ Screening Assay Data Analysis.
pIC50: −log10 of the molar value. Where a name gives a salt, the structure may show the parent alone.
Reported Metric: pIC50

[[record]]
molecule = "N#Cc1cc2cnc(Nc3ccc4c(c3)CCNC4)nc2n(C2CCC(F)(F)C2)c1=O (centres unmarked)"
target_desc = "CDK1 (cyclin B) (Homo sapiens, UniProt P06493)"
sign = "<"
observed_result = 5.33

[[record]]
molecule = "N#Cc1cc2ccc(Nc3ccc4c(c3)CNCC4)nc2n(C2CCCC2)c1=O"
target_desc = "CDK1 (cyclin B) (Homo sapiens, UniProt P06493)"
sign = "<"
observed_result = 5.30

[[record]]
molecule = "CS(=O)(=O)N1CCC(Nc2ncc3cc(C(F)F)c(=O)n(C4CC5CCC4C5)c3n2)CC1 (racemic)"
target_desc = "CDK1 (cyclin B) (Homo sapiens, UniProt P06493)"
sign = "="
observed_result = 7.06

[[record]]
molecule = "N#Cc1cc2cnc(Nc3ccc4c(c3)CCNC4)nc2n(C2CCC2)c1=O [Compound No. 91, hydrochloride]"
target_desc = "CDK1 (cyclin B) (Homo sapiens, UniProt P06493)"
sign = "="
observed_result = 6.04

[[record]]
molecule = "CN(C)C1CCc2ccc(Nc3ncc4cc(C#N)c(=O)n(C5CCCC5)c4n3)cc2C1 (centres unmarked)"
target_desc = "CDK1 (cyclin B) (Homo sapiens, UniProt P06493)"
sign = "="
observed_result = 6.31

[[record]]
molecule = "N#Cc1cc2cnc(Nc3ccc4c(c3)CCNC4)nc2n(CC2CCCCC2)c1=O"
target_desc = "CDK1 (cyclin B) (Homo sapiens, UniProt P06493)"
sign = "="
observed_result = 5.81

[[record]]
molecule = "CS(=O)(=O)N1CCC(Nc2ncc3cc(C#N)c(=O)n(C4CC5CC5C4)c3n2)CC1 (centres unmarked)"
target_desc = "CDK1 (cyclin B) (Homo sapiens, UniProt P06493)"
sign = "="
observed_result = 6.71

[[record]]
molecule = "CCOCCCn1c(=O)c(C#N)cc2cnc(Nc3ccc4c(c3)CCNC4)nc21"
target_desc = "CDK1 (cyclin B) (Homo sapiens, UniProt P06493)"
sign = "<"
observed_result = 5.30

[[record]]
molecule = "C[C@@]1(O)CCC[C@H]1n1c(=O)c(C#N)cc2cnc(NC3CCN(S(C)(=O)=O)CC3)nc21"
target_desc = "CDK1 (cyclin B) (Homo sapiens, UniProt P06493)"
sign = "="
observed_result = 7.26

[[record]]
molecule = "N#Cc1cc2cnc(Nc3ccc4c(c3)C(=O)NCC4)nc2n(C2CCCC2)c1=O"
target_desc = "CDK1 (cyclin B) (Homo sapiens, UniProt P06493)"
sign = "<"
observed_result = 5.33

[[record]]
molecule = "N#Cc1cc2cnc(Nc3ccc4c(c3)CCNC4)nc2n(-c2c(F)cccc2F)c1=O"
target_desc = "CDK1 (cyclin B) (Homo sapiens, UniProt P06493)"
sign = "="
observed_result = 5.88

[[record]]
molecule = "CCCCCc1ccc(S(=O)(=O)N2CCC(Nc3ncc4cc(C#N)c(=O)n(C5CCCC5)c4n3)CC2)cc1"
target_desc = "CDK1 (cyclin B) (Homo sapiens, UniProt P06493)"
sign = "<"
observed_result = 5.45

[[record]]
molecule = "N#Cc1cc2cnc(Nc3ccc(S(N)(=O)=O)cc3)nc2n(C2CCCC2)c1=O"
target_desc = "CDK1 (cyclin B) (Homo sapiens, UniProt P06493)"
sign = "="
observed_result = 6.38

[[record]]
molecule = "N#Cc1cc2cnc(Nc3ccc4c(c3)CCNC4)cc2n(C2CCCC2)c1=O"
target_desc = "CDK1 (cyclin B) (Homo sapiens, UniProt P06493)"
sign = "<"
observed_result = 5.30

